# System: HCV replicon in Huh7 cells
# assay details: HCV replicon cell-based assay
# Set-up: species or system HCV strain 1B
# measurement setup: Hepatitis C virus, Huh-7; HCV replicon, Huh7 cells; read-out: EC50 range
Below is a list of entries, each paired with its recorded EC50 value.

// returns reported EC50 for input "C=C[C@@H]1C[C@]1(NC(=O)[C@@H]1C[C@@H](Oc2nccc3c4c(ccc23)OC(F)(F)O4)CN1C(=O)[C@@H](NC(=O)OC(C)(C)C)C(C)(C)C)C(=O)NS(=O)(=O)C1CC1"
100 to 1000 nM

// returns reported EC50 for input "C=C[C@@H]1C[C@]1(NC(=O)[C@@H]1C[C@@H](Oc2cc(-c3ccccc3)nc(-c3ccccc3)c2)CN1C(=O)[C@@H](NC(=O)OC(C)(C)C)C(C)(C)C)C(=O)NS(=O)(=O)C1CC1"
< 100 nM

// returns reported EC50 for input "C=C[C@@H]1C[C@]1(NC(=O)[C@@H]1C[C@@H](Oc2ncc(OC)c3ccc(Cl)cc23)CN1C(=O)[C@@H](NC(=O)OC(C)(C)C)C(C)(C)C)C(=O)NS(=O)(=O)C1CC1"
< 100 nM

// returns reported EC50 for input C=C[C@@H]1C[C@]1(NC(=O)C1C[C@@H](Oc2nc(-c3ccccc3)nc3ccc(OC)cc23)CN1C(=O)[C@@H](N)C(C)(C)C)C(=O)NS(=O)(=O)C1CC1 (stereo partly shown)
1000 to 10000 nM

// returns reported EC50 for input "C=C[C@@H]1C[C@]1(NC(=O)[C@@H]1C[C@@H](Oc2nccc3c(OC(F)(F)F)cccc23)CN1C(=O)[C@@H](NC(=O)OC(C)(C)C)C(C)(C)C)C(=O)NS(=O)(=O)C1CC1"
100 to 1000 nM

// returns reported EC50 for input "C=C[C@@H]1C[C@]1(NC(=O)[C@@H]1C[C@@H](Oc2ccnc(-c3ccsc3)c2)CN1C(=O)[C@@H](NC(=O)OC1CCCC1)C(C)(C)C)C(=O)NS(=O)(=O)C1CC1"
100 to 1000 nM

// returns reported EC50 for input "CC[C@@H]1C[C@]1(NC(=O)[C@@H]1C[C@@H](Oc2nccc3cc(OC)ccc23)CN1C(=O)[C@@H](NC(=O)OC(C)(C)C)C(C)(C)C)C(=O)NS(=O)(=O)C1CC1"
< 100 nM

// returns reported EC50 for input "C=C[C@@H]1C[C@]1(NC(=O)[C@@H]1C[C@@H](Oc2ccnc(Br)c2)CN1C(=O)[C@@H](NC(=O)OC1CCCC1)C(C)(C)C)C(=O)NS(=O)(=O)C1CC1"
1000 to 10000 nM

// returns reported EC50 for input "C=C[C@@H]1C[C@]1(NC(=O)[C@@H]1C[C@@H](Oc2ccnc3cc(OC)ccc23)CN1C(=O)[C@@H](NC(=O)OC(C)(C)C)C(C)C)C(=O)NS(=O)(=O)C1CC1"
< 100 nM

// returns reported EC50 for input "C=C[C@@H]1C[C@]1(NC(=O)[C@@H]1C[C@@H](Oc2nc(N3CCOCC3)cc3cc(OC)ccc23)CN1C(=O)[C@@H](NC(=O)OC(C)(C)C)C(C)(C)C)C(=O)NS(=O)(=O)C1CC1"
< 100 nM

----------
# assayed system: HCV NS3/4A protease complex, BMS strain (UniProt P27958, C1454S/C1711G, species not given/STRAIN_BMS)
# assay details: Recombinant HCV NS3/4A protease complex FRET peptide assay (BMS strain)
# Format: biochemical, HCV genotype 1a
# measurement setup: NS3/4A BMS strain; read-out: IC50 range
quantity kind: IC50

- compound: "C=C[C@@H]1C[C@]1(NC(=O)[C@@H]1C[C@@H](Oc2nccc3cc(OC)ccc23)CN1C(=O)[C@@H](NC(=O)N[C@H](C(=O)OCC)C(C)C)C(C)(C)C)C(=O)NS(=O)(=O)C1CC1"
  IC50: "< 100 nM"

// returns reported IC50 for input "C=C[C@@H]1C[C@]1(NC(=O)[C@@H]1C[C@@H](Oc2nc(C)cc3ccccc23)CN1C(=O)[C@@H](NC(=O)OC(C)(C)C)C(C)(C)C)C(=O)NS(=O)(=O)C1CC1"
< 100 nM

// returns reported IC50 for input C=CC1C[C@]1(NC(=O)[C@@H]1C[C@@H](Oc2nccc(-c3cccs3)n2)CN1C(=O)[C@@H](NC(=O)OC)C(C)(C)C)C(=O)NS(=O)(=O)C1CC1 (some centres unmarked)
100 to 1000 nM

// returns reported IC50 for input "C=C[C@@H]1C[C@]1(NC(=O)[C@@H]1C[C@@H](Oc2ncc(Cl)c3ccccc23)CN1C(=O)[C@@H](NC(=O)OC(C)(C)C)C(C)(C)C)C(=O)NS(=O)(=O)C1CC1"
< 100 nM

// returns reported IC50 for input "C=C[C@@H]1C[C@]1(NC(=O)[C@@H]1C[C@@H](Oc2nccc3cc(OC)ccc23)CN1C(=O)[C@@H](NC(=O)N[C@H](C(=O)OC)[C@@H](C)CC)C(C)(C)C)C(=O)NS(=O)(=O)C1CC1"
< 100 nM

----------
# Tested on: HCV replicon in Huh7 cells
# assay details: HCV replicon cell-based assay
# Set-up: species or system HCV strain 1B
# measurement setup: Hepatitis C virus, Huh-7; HCV replicon, Huh7 cells; read-out: EC50 range
pEC50: −log10 of the molar value.
quantity kind: pEC50

- compound: "CC[C@@H]1C[C@]1(NC(=O)[C@@H]1C[C@@H](Oc2cc3c(Cl)nccc3cc2OC)CN1C(=O)[C@@H](NC(=O)OC(C)(C)C)C(C)(C)C)C(=O)NS(=O)(=O)C1CC1"
  meas value: "6.00 to 7.00"
- compound: "C=CC1C[C@]1(NC(=O)[C@@H]1C[C@@H](Oc2nccc3cc(C(C)(C)C)ccc23)CN1C(=O)[C@@H](NC(=O)OC(C)(C)C)C(C)(C)C)C(=O)NS(=O)(=O)C1CC1 (stereo partly shown)"
  meas value: "6.00 to 7.00"
- compound: "C=C[C@@H]1C[C@]1(NC(=O)[C@@H]1C[C@@H](Oc2nccc3c(C)cccc23)CN1C(=O)[C@@H](NC(=O)OC(C)(C)C)C(C)(C)C)C(=O)NS(=O)(=O)C1CC1"
  meas value: "> 7.00"
- compound: "C=C[C@@H]1C[C@]1(NC(=O)[C@@H]1C[C@@H](Oc2nccc3cc(OC)ccc23)CN1C(=O)[C@@H](NC(=O)OC(C)(C)C)[C@H](C)OCC)C(=O)NS(=O)(=O)C1CC1"
  meas value: "> 7.00"
- compound: "C=C[C@@H]1C[C@]1(NC(=O)[C@@H]1C[C@@H](Oc2cc(-c3ccccc3)nc(-c3cccs3)c2)CN1C(=O)[C@@H](NC(=O)OC(C)(C)C)C(C)(C)C)C(=O)NS(=O)(=O)C1CC1"
  meas value: "> 7.00"

// returns reported pEC50 for input "C=C[C@@H]1C[C@]1(NC(=O)[C@@H]1C[C@@H](Oc2nccc3cc(OC)ccc23)CN1C(=O)[C@@H](NC(=O)NC1CCCC1)[C@H](C)OC)C(=O)NS(=O)(=O)C1CC1"
> 7.00

// returns reported pEC50 for input "C=C[C@@H]1C[C@]1(NC(=O)[C@@H]1C[C@@H](Oc2nccc3cc(OC)ccc23)CN1C(=O)[C@@H](NC(=O)N[C@@H](C)COC)C(C)(C)C)C(=O)NS(=O)(=O)C1CC1"
> 7.00

// returns reported pEC50 for input "C=C[C@@H]1C[C@]1(NC(=O)[C@@H]1C[C@@H](Oc2cncc(-c3nccs3)c2)CN1C(=O)[C@@H](NC(=O)OC(C)(C)C)C(C)(C)C)C(=O)NS(=O)(=O)C1CC1"
6.00 to 7.00

// returns reported pEC50 for input "C=C[C@@H]1C[C@]1(NC(=O)[C@@H]1C[C@@H](Oc2nccc3cc(OC)ccc23)CN1C(=O)[C@@H](NC(=O)N[C@@H](Cc1c[nH]cn1)C(=O)OC)C(C)(C)C)C(=O)NS(=O)(=O)C1CC1"
5.00 to 6.00

// returns reported pEC50 for input C=CC1C[C@]1(NC(=O)[C@@H]1C[C@@H](Oc2nccc3c4c(c(SC)cc23)OCO4)CN1C(=O)[C@@H](NC(=O)OC(C)(C)C)C(C)(C)C)C(=O)NS(=O)(=O)C1CC1 (stereo partly shown)
> 7.00

----------
Below is a list of entries, each paired with its recorded pIC50 value.
# assayed system: HCV NS3/4A protease complex, BMS strain (UniProt P27958, C1454S/C1711G, species not given/STRAIN_BMS)
# assay details: Recombinant HCV NS3/4A protease complex FRET peptide assay (BMS strain)
# Format: biochemical, HCV genotype 1a
# measurement setup: NS3/4A BMS strain; read-out: IC50 range
pIC50: −log10 of the molar value.

Below, each entry is followed by its recorded pIC50 result.
- compound: "C=C[C@@H]1C[C@]1(NC(=O)[C@@H]1C[C@@H](Oc2ncc(Cl)c3ccc(OC)cc23)CN1C(=O)[C@@H](NC(=O)OC(C)(C)C)C(C)(C)C)C(=O)NS(=O)(=O)C1CC1"
  quantity kind: "pIC50"
  meas value: "6.00 to 7.00"
- compound: "C=C[C@@H]1C[C@]1(NC(=O)[C@@H]1C[C@@H](Oc2nccc3ccccc23)CN1C(=O)[C@@H](NC(=O)OCCCCCC)C(C)(C)C)C(=O)NS(=O)(=O)C1CC1"
  quantity kind: "pIC50"
  meas value: "6.00 to 7.00"
- compound: "C=C[C@@H]1C[C@]1(NC(=O)[C@@H]1C[C@@H](Oc2nccc3cc(OC)ccc23)CN1C(=O)[C@@H](NC(=O)OC)C(C)(C)C)C(=O)NS(=O)(=O)C1CC1"
  quantity kind: "pIC50"
  meas value: "> 7.00"
- compound: "C=CC1C[C@]1(NC(=O)[C@@H]1C[C@@H](Oc2nccc3cc(F)ccc23)CN1C(=O)[C@@H](NC(=O)OC(C)(C)C)C(C)(C)C)C(=O)NS(=O)(=O)C1CC1 (stereo partly shown)"
  quantity kind: "pIC50"
  meas value: "> 7.00"
- compound: "C=C[C@@H]1C[C@]1(NC(=O)[C@@H]1C[C@@H](Oc2ncc(OC)c3cc(OC)ccc23)CN1C(=O)[C@@H](NC(=O)OC(C)(C)C)C(C)(C)C)C(=O)NS(=O)(=O)C1CC1"
  quantity kind: "pIC50"
  meas value: "> 7.00"

// returns reported pIC50 for input C=CC1C[C@]1(NC(=O)[C@@H]1C[C@@H](Oc2cc(C(F)(F)F)nc3ccc(F)cc23)CN1C(=O)[C@@H](NC(=O)OC(C)(C)C)C(C)(C)C)C(=O)NS(=O)(=O)C1CC1 (stereo partly shown)
> 7.00

// returns reported pIC50 for input "CC[C@@H]1C[C@]1(NC(=O)[C@@H]1C[C@@H](Oc2nccc3c(OC)cccc23)CN1C(=O)[C@@H](NC(=O)OC(C)(C)C)C(C)(C)C)C(=O)NS(=O)(=O)C1CC1"
> 7.00

// returns reported pIC50 for input "C=C[C@@H]1C[C@]1(NC(=O)[C@@H]1C[C@@H](Oc2nccc3cc(OC)ccc23)CN1C(=O)[C@@H](NC(=O)OC(C)(C)C)[C@@H](C)OC)C(=O)NS(=O)(=O)C1CC1"
> 7.00

// returns reported pIC50 for input C=C[C@@H]1C[C@]1(NC(=O)C1C[C@@H](Oc2nc(C3CC3)nc3cc(OC)c(OC)cc23)CN1C(=O)[C@@H](N)C(C)(C)C)C(=O)NS(=O)(=O)C1CC1 (stereo partly shown)
5.00 to 6.00

// returns reported pIC50 for input C=CC1C[C@]1(NC(=O)[C@@H]1C[C@@H](Oc2cnc3ccccc3n2)CN1C(=O)[C@@H](NC(=O)OC(C)(C)C)C(C)(C)C)C(=O)NS(=O)(=O)C1CC1 (stereo partly shown)
> 7.00
